Sequence of the target: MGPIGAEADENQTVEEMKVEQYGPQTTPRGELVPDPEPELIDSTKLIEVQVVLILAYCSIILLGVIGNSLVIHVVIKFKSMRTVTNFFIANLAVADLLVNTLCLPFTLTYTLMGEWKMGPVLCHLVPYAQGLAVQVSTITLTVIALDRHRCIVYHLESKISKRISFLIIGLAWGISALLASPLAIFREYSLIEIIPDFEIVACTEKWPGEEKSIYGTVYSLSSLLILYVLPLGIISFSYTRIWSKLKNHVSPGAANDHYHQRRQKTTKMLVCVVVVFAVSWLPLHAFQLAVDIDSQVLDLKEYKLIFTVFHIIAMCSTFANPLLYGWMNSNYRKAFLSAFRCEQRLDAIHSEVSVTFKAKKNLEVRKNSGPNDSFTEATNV
Here, each record is paired with measured pKi data.
To interpret pKi, take it as minus log10 of a concentration measured in moles per litre.

[[record]]
compound = "CCC[C@H](NC(=O)[C@H](CCCN=C(N)N)NC(=O)[C@H](Cc1c[nH]c2ccccc12)NC(=O)[C@@H](N)CCCC[C@H](N)C(=O)N[C@@H](Cc1c[nH]c2ccccc12)C(=O)N[C@@H](CCCN=C(N)N)C(=O)N[C@@H](CCC)C(=O)N[C@@H](CCCN=C(N)N)C(=O)N[C@@H](Cc1ccc(O)cc1)C(N)=O)C(=O)N[C@@H](CCCN=C(N)N)C(=O)N[C@@H](Cc1ccc(O)cc1)C(N)=O (stereo in doubt; 4B)"
endpoint_result = 6.28


Now let's try a different one.
Determine its reported pKi: CC(C)C[C@H](NC(=O)[C@H](CCCN=C(N)N)NC(=O)[C@H](Cc1ccc(O)cc1)NC(=O)[C@@H](N)CCCC[C@H](N)C(=O)N[C@@H](Cc1ccc(O)cc1)C(=O)N[C@@H](CCCN=C(N)N)C(=O)N[C@@H](CC(C)C)C(=O)N[C@@H](CCCN=C(N)N)C(=O)N[C@@H](Cc1ccc(O)cc1)C(N)=O)C(=O)N[C@@H](CCCN=C(N)N)C(=O)N[C@@H](Cc1ccc(O)cc1)C(N)=O
6.05

###

Here, each record is paired with measured Selectivity ratio data.
Species: Homo sapiens
Experiment: Selectivity for human NPY4 over NPY1 receptor
Please state the value as a number alone, without comment.

These solved cases illustrate the format of a correct answer.
[[record]]
molecule = "CCC[C@H](NC(=O)[C@H](CCCN=C(N)N)NC(=O)[C@H](Cc1c[nH]c2ccccc12)NC(=O)[C@@H](N)CCC[C@H](N)C(=O)N[C@@H](Cc1c[nH]c2ccccc12)C(=O)N[C@@H](CCCN=C(N)N)C(=O)N[C@@H](CCC)C(=O)N[C@@H](CCCN=C(N)N)C(=O)N[C@@H](Cc1ccc(O)cc1)C(N)=O)C(=O)N[C@@H](CCCN=C(N)N)C(=O)N[C@@H](Cc1ccc(O)cc1)C(N)=O (stereo in doubt; 2B)"
endpoint_result = 40

[[record]]
molecule = "CCC[C@H](NC(=O)[C@H](CCCN=C(N)N)NC(=O)[C@H](Cc1c[nH]c2ccccc12)NC(=O)[C@@H](N)CCCC[C@H](N)C(=O)N[C@@H](Cc1c[nH]c2ccccc12)C(=O)N[C@@H](CCCN=C(N)N)C(=O)N[C@@H](CCC)C(=O)N[C@@H](CCCN=C(N)N)C(=O)N[C@@H](Cc1ccc(O)cc1)C(N)=O)C(=O)N[C@@H](CCCN=C(N)N)C(=O)N[C@@H](Cc1ccc(O)cc1)C(N)=O (stereo in doubt; 4B)"
endpoint_result = 40

[[record]]
molecule = "CCC[C@H](NC(=O)[C@H](CCCN=C(N)N)NC(=O)[C@H](Cc1c[nH]c2ccccc12)NC(=O)[C@@H](N)CCC[C@H](N)C(=O)N[C@@H](Cc1c[nH]c2ccccc12)C(=O)N[C@@H](CCCN=C(N)N)C(=O)N[C@@H](CCC)C(=O)N[C@@H](CCCN=C(N)N)C(=O)N[C@@H](Cc1ccc(O)cc1)C(N)=O)C(=O)N[C@@H](CCCN=C(N)N)C(=O)N[C@@H](Cc1ccc(O)cc1)C(N)=O (stereo in doubt; 2A)"
endpoint_result = 30


Now let's try a different one.
Determine its reported Selectivity ratio: CCC[C@H](NC(=O)[C@H](CCCN=C(N)N)NC(=O)[C@H](Cc1c[nH]c2ccccc12)NC(=O)[C@@H](N)CCCC[C@H](N)C(=O)N[C@@H](Cc1c[nH]c2ccccc12)C(=O)N[C@@H](CCCN=C(N)N)C(=O)N[C@@H](CCC)C(=O)N[C@@H](CCCN=C(N)N)C(=O)N[C@@H](Cc1ccc(O)cc1)C(N)=O)C(=O)N[C@@H](CCCN=C(N)N)C(=O)N[C@@H](Cc1ccc(O)cc1)C(N)=O (stereo in doubt; 4A)
20

###

Target: Neuropeptide Y receptor type 1 (Homo sapiens, UniProt P25929)
Sequence (P25929 whole entry): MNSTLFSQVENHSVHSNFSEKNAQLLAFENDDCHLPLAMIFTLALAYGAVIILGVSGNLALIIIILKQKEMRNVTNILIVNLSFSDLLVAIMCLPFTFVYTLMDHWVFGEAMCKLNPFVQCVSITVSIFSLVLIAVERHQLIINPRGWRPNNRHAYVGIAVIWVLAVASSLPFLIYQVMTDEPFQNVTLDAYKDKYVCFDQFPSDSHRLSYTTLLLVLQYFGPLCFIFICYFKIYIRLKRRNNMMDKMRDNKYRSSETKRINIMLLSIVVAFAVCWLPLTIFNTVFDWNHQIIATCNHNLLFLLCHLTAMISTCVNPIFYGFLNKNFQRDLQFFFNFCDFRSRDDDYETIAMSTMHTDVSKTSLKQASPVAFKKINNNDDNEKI
Positions of bridges follow the written chain, without caps; N, C: chain ends. Non-standard residues stand in square brackets, D forms with d. Residues, ends and D or L forms follow the SMILES beside them. Chains are numbered I, II in the order given. Nva = CCC[C@H](N)C(=O)O
reported.metric: pKi
To interpret pKi, take it as minus log10 of a concentration measured in moles per litre.

These solved cases illustrate the format of a correct answer.
[[record]]
compound = "CCC[C@H](NC(=O)[C@H](CCCN=C(N)N)NC(=O)[C@H](Cc1c[nH]c2ccccc12)NC(=O)[C@H](Cc1ccc(O)cc1)NC(=O)[C@H](CCCN=C(N)N)NC(=O)[C@H](CCC)NC(=O)[C@H](CCCN=C(N)N)NC(=O)[C@@H](N)Cc1c[nH]c2ccccc12)C(=O)N[C@@H](CCCN=C(N)N)C(=O)N[C@@H](Cc1ccc(O)cc1)C(N)=O (H-WR[Nva]RYWR[Nva]RY-NH2)"
reported_metric = "pKi"
endpoint_result = 6.66

[[record]]
compound = "CCC[C@H](NC(=O)[C@H](CCCN=C(N)N)NC(=O)[C@H](Cc1c[nH]c2ccccc12)NC(=O)[C@@H](N)CCC[C@H](N)C(=O)N[C@@H](Cc1c[nH]c2ccccc12)C(=O)N[C@@H](CCCN=C(N)N)C(=O)N[C@@H](CCC)C(=O)N[C@@H](CCCN=C(N)N)C(=O)N[C@@H](Cc1ccc(O)cc1)C(N)=O)C(=O)N[C@@H](CCCN=C(N)N)C(=O)N[C@@H](Cc1ccc(O)cc1)C(N)=O (stereo in doubt; 2A)"
reported_metric = "pKi"
endpoint_result = 6.92


Please look at CCC[C@H](NC(=O)[C@H](CCCNC(=N)N)NC(=O)[C@H](Cc1c[nH]c2ccccc12)NC(=O)[C@@H](N)CSSC[C@H](N)C(=O)N[C@@H](Cc1c[nH]c2ccccc12)C(=O)N[C@@H](CCCNC(=N)N)C(=O)N[C@@H](CCC)C(=O)N[C@@H](CCCNC(=N)N)C(=O)N[C@@H](Cc1ccc(O)cc1)C(N)=O)C(=O)N[C@@H](CCCNC(=N)N)C(=O)N[C@@H](Cc1ccc(O)cc1)C(N)=O (I: H-CWR[Nva]RY-NH2 / II: H-CWR[Nva]RY-NH2; disulfide I:1-II:1) and tell me its recorded pKi on Neuropeptide Y receptor type 1 (Homo sapiens, UniProt P25929).
6.47

Please look at CCC[C@H](NC(=O)[C@H](CCCN=C(N)N)NC(=O)[C@H](Cc1c[nH]c2ccccc12)NC(=O)[C@@H](N)CC[C@H](N)C(=O)N[C@@H](Cc1c[nH]c2ccccc12)C(=O)N[C@@H](CCCN=C(N)N)C(=O)N[C@@H](CCC)C(=O)N[C@@H](CCCN=C(N)N)C(=O)N[C@@H](Cc1ccc(O)cc1)C(N)=O)C(=O)N[C@@H](CCCN=C(N)N)C(=O)N[C@@H](Cc1ccc(O)cc1)C(N)=O and tell me its recorded pKi on Neuropeptide Y receptor type 1 (Homo sapiens, UniProt P25929).
6.85

Please look at CCC[C@H](NC(=O)[C@H](CCCN=C(N)N)NC(=O)[C@H](Cc1c[nH]c2ccccc12)NC(=O)[C@H](Cc1ccc(O)cc1)NC(=O)[C@H](CCCN=C(N)N)NC(=O)[C@H](CCC)NC(=O)[C@H](CCCN=C(N)N)NC(=O)[C@H](Cc1c[nH]c2ccccc12)NC(=O)[C@H](Cc1ccc(O)cc1)NC(=O)[C@H](CCCN=C(N)N)NC(=O)[C@H](CCC)NC(=O)[C@H](CCCN=C(N)N)NC(=O)[C@@H](N)Cc1c[nH]c2ccccc12)C(=O)N[C@@H](CCCN=C(N)N)C(=O)N[C@@H](Cc1ccc(O)cc1)C(N)=O (H-WR[Nva]RYWR[Nva]RYWR[Nva]RY-NH2) and tell me its recorded pKi on Neuropeptide Y receptor type 1 (Homo sapiens, UniProt P25929).
7.52

Please look at CCC[C@H](NC(=O)[C@H](CCCN=C(N)N)NC(=O)[C@H](Cc1c[nH]c2ccccc12)NC(=O)[C@@H](N)CCCC[C@H](N)C(=O)N[C@@H](Cc1c[nH]c2ccccc12)C(=O)N[C@@H](CCCN=C(N)N)C(=O)N[C@@H](CCC)C(=O)N[C@@H](CCCN=C(N)N)C(=O)N[C@@H](Cc1ccc(O)cc1)C(N)=O)C(=O)N[C@@H](CCCN=C(N)N)C(=O)N[C@@H](Cc1ccc(O)cc1)C(N)=O (stereo in doubt; 4A) and tell me its recorded pKi on Neuropeptide Y receptor type 1 (Homo sapiens, UniProt P25929).
7.05
